biological target: T1, human MSLN-hFc protein (Acro, Cat. No. MSN-H5253) (human, UniProt Q13421 296-580); assay: ELISA on coated antigen, antibody 10 nM
T1 construct: the method names the coated protein as human MSLN-hFc (Acro); also called human MSLN full-length protein
T1 sequence (Q13421 other isoform, or with tags, fused parts or gaps limits assumed): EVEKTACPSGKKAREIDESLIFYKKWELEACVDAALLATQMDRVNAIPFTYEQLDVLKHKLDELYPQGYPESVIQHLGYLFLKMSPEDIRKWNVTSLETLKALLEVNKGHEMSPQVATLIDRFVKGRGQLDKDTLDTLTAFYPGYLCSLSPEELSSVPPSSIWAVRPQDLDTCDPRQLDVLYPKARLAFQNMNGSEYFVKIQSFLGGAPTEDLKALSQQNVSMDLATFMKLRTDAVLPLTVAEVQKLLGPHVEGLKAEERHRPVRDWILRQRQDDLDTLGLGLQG
The following binders are shown together with reported OD450 values.
Could you kindly put the unit after your number?

Examples from the recorded data:
BINDER	OD450
F7.33.24-H1 (scFv, not shown: small tags and cut ends, also called S009-F7.33.24 humanized antibody VH1 + VL1) scFv: EVQLVQSGAEVKKPGASVKVSCKASGYTFTSYWMHWVRQAPGQRLEWMGNVNPSNGGSNYNEKFKNRVTITVDKSASTAYMELSSLRSEDTAVYYCAPHYIGSRPGFAYWGQGTLVTVSSGGGGSGGGGSGGGGSDIVMTQSPDSLAVSLGERATINCKASQNVGTNIAWYQQKPGQSPKALIYSASYRYSGVPDRFSGSGSGTDFTLTISSLQAEDVAVYYCQQYNSYPLTFGGGTKVEIK	2.53 OD450
F7.33.24 (scFv, not shown: small tags and cut ends, also called S009-F7.33.24 (parental variable regions, in the humanized-antibody ELISA)) scFv: QVQLQQPGTELVKPGASVKLSCKASGYTFTSYWMHWVKQRPGQGLEWIGNVNPSNGGSNYNEKFKNKATLTVDKSSSTADMQLNSLTSEDSAVYYCAPHYIGSRPGFAYWGQGTLVTVSGGGGGSGGGGSGGGGSDIVMTQSQKFMSTSVGDRVSVTCKASQNVGTNIAWYQQKPGQSPKALIYSASYRYSGVPDRFTGSGSGTDFTLTITNVQSEDLAEYFCQQYNSYPLTFGGGTKVEIK	1.63 OD450

Moving on to the next binder.
Kindly note the recorded OD450 for F7.33.24-H3 (scFv, not shown: small tags and cut ends, also called S009-F7.33.24 humanized antibody VH1 + VL3) scFv: EVQLVQSGAEVKKPGASVKVSCKASGYTFTSYWMHWVRQAPGQRLEWMGNVNPSNGGSNYNEKFKNRVTITVDKSASTAYMELSSLRSEDTAVYYCAPHYIGSRPGFAYWGQGTLVTVSSGGGGSGGGGSGGGGSDIVMTQTPLSLSVTPGQPASISCKASQNVGTNIAWYQQKPGQSPQALIYSASYRYSGVPDRFSGSGSGTDFTLKISRVEAEDVGVYYCQQYNSYPLTFGGGTKVEIK , which is 2.58 OD450
